Provide the reported IC50 of each item.
# assay-target: human NCX1 (Homo sapiens)
# Construct: expressed in transfected cells
# assay-text: NCX1 inhibition, reverse mode (Ca2+ influx into cells), FLIPR Fluo-4 assay
# Type: cell-based
# condition-notes: inhibition of NCX1 in reverse mode (Ca2+ influx into cells); read-out: NCX1rv IC50
Structures can show the parent of a compound that is named as a salt.
I only need the number, in nM, no unit after it.

Which measured IC50 value corresponds to Cc1nc(Oc2ccc3c(c2)CCC(c2ccccc2)O3)sc1C(=O)NCCc1ccncc1 (centres unmarked) [compound 170, hydrochloride] ?
300

Note, next up: CCC(C)(C)NCc1cnc(Oc2ccc3c(c2)CCC(c2ccccc2)O3)s1 (centres unmarked) [compound 112]
300

Again, but for Cc1ccccc1C1CCc2cc(Oc3nc(C)c(C(=O)NCCO)s3)ccc2O1 (centres unmarked) [Example 335]
300

Also need Oc1cc(CNCc2cnc(Oc3ccc4c(c3)CCC(c3ccccc3)O4)s2)ccn1 (centres unmarked) [compound 154] , thanks.
300

Quick one: CCCNC(=O)c1csc(Oc2ccc3c(c2)CC[C@@H](c2ccccc2)O3)n1 [compound 351]
110

Check O=C(NCCO)c1cnc(Oc2ccc3c(c2)CCC(c2cccnc2)O3)s1 (centres unmarked) [compound 249] too.
1400

Let us now turn to NC1CC(NC(=O)c2cnc(Oc3ccc4c(c3)CCC(c3cccnc3)O4)s2)C1 (centres unmarked) [compound 265, hydrochloride]
7300

What do you have for COC(=O)C(C)(C)NC(=O)c1cnc(Oc2ccc3c(c2)CC[C@@H](c2ccccc2)O3)s1 [Example 182] ?
600

* * *

# assay-target: human NCX1 (Homo sapiens, UniProt P32418)
# Construct: expressed in transfected cells
# assay-text: NCX1 inhibition, reverse mode (Ca2+ influx into cells), FLIPR Fluo-4 assay
# Type: cell-based
# condition-notes: inhibition of NCX1 in reverse mode (Ca2+ influx into cells); read-out: NCX1rv IC50
Give measured IC50 for each item. Keep answers brief.
Response body: numeric value in nM, unit text excluded.

# query: IC50 of entry Cc1noc(C)c1CCC(=O)NCc1cnc(Oc2ccc3c(c2)CCC(c2ccccc2)O3)s1 (centres unmarked)
900

Same question, "CC(C)C[C@H](NC(=O)c1cnc(Oc2ccc3c(c2)CC[C@@H](c2ccccc2)O3)s1)C(=O)O" this time
600

Another compound to look at: O=C(c1cnc(Oc2ccc3c(c2)CCC(c2cccnc2)O3)s1)N1CCC[C@H]1CO (some centres unmarked)
1800

Follow-up entry: Cc1ccc(C2CCc3cc(Oc4ncc(C(=O)NCc5ccno5)s4)ccc3O2)cn1 (centres unmarked)
1500

# iterate: c1ccc(C2CCc3cc(Oc4ncc(CN5C6CCC5CC6)s4)ccc3O2)cc1 (centres unmarked)
600

Please do the same for Cc1cc(C(=O)NCc2cnc(Oc3ccc4c(c3)CCC(c3ccccc3)O4)s2)n(C)n1 (centres unmarked) as well.
600

Try this compound next: Cc1ccccc1C1CCc2cc(Oc3ncc(C(=O)NCc4ccncc4)s3)ccc2O1 (centres unmarked)
500

What do you get for "Cc1c(CNC(=O)c2cnc(Oc3ccc4c(c3)CC[C@H](c3ccccc3)O4)s2)cnn1C" ?
600

* * *

I'd be grateful if you could share measured IC50 for these entries.
# assay-target: human NCX1 (Homo sapiens, UniProt P32418)
# Construct: expressed in transfected cells
# assay-text: NCX1 inhibition, reverse mode (Ca2+ influx into cells), FLIPR Fluo-4 assay
# Format: cell-based
# condition-notes: inhibition of NCX1 in reverse mode (Ca2+ influx into cells); read-out: NCX1rv IC50
Respond with the bare value in nM.

Which IC50 is listed for O=C(NCc1ccnc(Cl)c1)c1cnc(Oc2ccc3c(c2)CCC(c2cncc(F)c2)O3)s1 (stereo not shown) ?
700

And the next one, O=C(NC1CCCC1O)c1cnc(Oc2ccc3c(c2)CCC(c2ccccc2)O3)s1 (stereo not shown) ?
250

Would you mind doing "O=C(c1cnc(Oc2ccc3c(c2)CC[C@@H](c2ccccc2)O3)s1)N1CCOCC1" as well?
500

Same question, CCOC(=O)[C@@H](NC(=O)c1cnc(Oc2ccc3c(c2)CCC(c2cccnc2)O3)s1)C(C)C (stereo partly shown) this time
25200

* * *

# assay-target: human NCX1 (Homo sapiens, UniProt P32418)
# Construct: expressed in transfected cells
# assay-text: NCX1 inhibition, reverse mode (Ca2+ influx into cells), FLIPR Fluo-4 assay
# Type: cell-based
# condition-notes: inhibition of NCX1 in reverse mode (Ca2+ influx into cells); read-out: NCX1rv IC50
property: pIC50
A value of pIC50 is the negative decimal logarithm of a concentration given in moles per litre.

Request the reported pIC50 associated with Cc1ccc(C(=O)NCc2cnc(Oc3ccc4c(c3)CCC(c3ccccc3)O4)s2)cn1 (stereo not shown) [compound 64]
5.89

Let us now turn to Cc1ccn(CC(=O)NCc2cnc(Oc3ccc4c(c3)CCC(c3ccccc3)O4)s2)n1 (stereo not shown) [compound 74]
6.52

Same question for NC1CCN(C(=O)c2cnc(Oc3ccc4c(c3)CC[C@@H](c3ccccc3)O4)s2)C1 (stereo partly shown) [compound 292] please.
6.52

Item: O=C(NCc1ccno1)c1cnc(Oc2ccc3c(c2)CCC(c2cccc(F)c2)O3)s1 (stereo not shown) [compound 49]
7.00

* * *

Kindly state log10 IC50 for each of the entries shown.
# assay-target: human NCX1 (Homo sapiens, UniProt P32418)
# Construct: expressed in transfected cells
# assay-text: NCX1 inhibition, reverse mode (Ca2+ influx into cells), FLIPR Fluo-4 assay
# Format: cell-based
# condition-notes: inhibition of NCX1 in reverse mode (Ca2+ influx into cells); read-out: NCX1rv IC50
# Description: The sodium/calcium exchanger NCX1 can transport calcium ions and sodium ions through the cell membrane. The transport is an exchange of Ca^2+ and Na^+ in two directions depending on membrane potential and ion gradients. […] The effect of the compounds of the invention on NCX1 was determined in CHO cells stably expressing human NCX1 (gene symbol SLC8A1; cf. WO 2009/115238). […]
Counter-ions that a name gives are not always drawn.
Values below are the log10 of the recorded IC50, with nM as the unit.

Form entry - test system: human NCX1 (Homo sapiens, UniProt P32418); read-out: log10 IC50; compound: "O=C(O)CNCc1cnc(Oc2ccc3c(c2)CC[C@@H](c2ccccc2)O3)s1"
2.78

Same lookup for COc1cccc(C2CCc3cc(Oc4ncc(C(=O)NCc5ccno5)s4)ccc3O2)c1F (centres unmarked) , please.
3.98

Cc1cc(CNC(=O)c2cnc(Oc3ccc4c(c3)CC[C@@H](c3ccccc3)O4)s2)ccn1 [compound 274, hydrochloride] ?
2.60

Next compound: Cc1noc(C)c1CNCc1cnc(Oc2ccc3c(c2)CCC(c2ccccc2)O3)s1 (centres unmarked)
2.48

Then what about the compound CC(C)c1csc([C@H](C)NC(=O)c2cnc(Oc3ccc4c(c3)CCC(c3ccccc3)O4)s2)n1 (some centres unmarked) ?
2.85

Same question, CC(C)OC(=O)CNC(=O)c1cnc(Oc2ccc3c(c2)CCC(c2ccccc2)O3)s1 (centres unmarked) this time
2.30

Also, CN1CCN(C(=O)c2cnc(Oc3ccc4c(c3)CCC(c3ccccc3)O4)s2)CC1 (centres unmarked) please.
2.60

Another compound: O=C(NCCO)c1cnc(Oc2ccc3c(c2)CCC(c2ccccc2)O3)s1 (centres unmarked)
2.60

* * *

# assay-target: human NCX1 (Homo sapiens, UniProt P32418)
# Construct: expressed in transfected cells
# assay-text: NCX1 inhibition, reverse mode (Ca2+ influx into cells), FLIPR Fluo-4 assay
# Assay type: cell-based
# condition-notes: inhibition of NCX1 in reverse mode (Ca2+ influx into cells); read-out: NCX1rv IC50
Structures can show the parent of a compound that is named as a salt.
property: IC50
Kindly write the number and append the unit.

Report IC50 for Cc1cc(C)n(CCNCc2cnc(Oc3ccc4c(c3)CCC(c3ccccc3)O4)s2)n1 (stereo not shown) [compound 150] please.
800 nM

# iterate: c1ccc(C2CCc3cc(Oc4ncc(CNCC5CC5)s4)ccc3O2)cc1 (stereo not shown) [compound 120]
300 nM

Okay, and CC(C)(C)OC(=O)CNC(=O)c1cnc(Oc2ccc3c(c2)CCC(c2ccccc2)O3)s1 (stereo not shown) [compound 306] ?
500 nM

Quick one: Cc1cnc(CNCc2cnc(Oc3ccc4c(c3)CCC(c3ccccc3)O4)s2)cn1 (stereo not shown) [compound 135]
500 nM

Could you do the same for O=C(NCc1ccnc(Cl)c1)c1cnc(Oc2ccc3c(c2)CCC(c2ccsc2)O3)s1 (stereo not shown) [compound 211, hydrochloride] , please?
400 nM

And O=C(NCc1ccncc1)c1cnc(Oc2ccc3c(c2)CCC(c2ccsc2)O3)s1 (stereo not shown) [compound 60, hydrochloride] ?
100 nM

Queued: O=C(Cn1cccn1)NCc1cnc(Oc2ccc3c(c2)CCC(c2ccccc2)O3)s1 (stereo not shown) [compound 92]
1100 nM

Next up: O=C(NCc1cnc(Oc2ccc3c(c2)CCC(c2ccccc2)O3)s1)c1ncccn1 (stereo not shown) [compound 87]
400 nM

Next compound up: Cc1nc(Oc2ccc3c(c2)CCC(c2ccccc2)O3)sc1C(=O)NCc1ccnc(Cl)c1 (stereo not shown) [compound 167, hydrochloride]
500 nM

Do the same for O=C(Cc1ccncc1)NCc1cnc(Oc2ccc3c(c2)CCC(c2ccccc2)O3)s1 (stereo not shown) [compound 43, hydrochloride] please
300 nM

Here is the next compound: O=C(NCc1ccncc1)c1cnc(Oc2ccc3c(c2)CCC(c2ccccc2)O3)s1 (stereo not shown) [compound 4]
300 nM

// same read-out, input: Cc1c(S(=O)(=O)NCc2cnc(Oc3ccc4c(c3)CCC(c3ccccc3)O4)s2)cnn1C (stereo not shown) [compound 133]
400 nM

Thanks! And O=C(NCc1nnc2n1CCC2)c1cnc(Oc2ccc3c(c2)CCC(c2ccccc2)O3)s1 (stereo not shown) [Example 2] ?
300 nM

Proceed to O=C(c1cnc(Oc2ccc3c(c2)CC[C@@H](c2ccccc2)O3)s1)N1CCC[C@H]1CO [compound 205]
300 nM

What do we get for Cc1nn(C)cc1CNCc1cnc(Oc2ccc3c(c2)CCC(c2ccccc2)O3)s1 (stereo not shown) [compound 137] ?
400 nM

Can you check NC(=O)c1cnc(Oc2ccc3c(c2)CCC(c2ccccc2)O3)s1 (stereo not shown) [compound 339] next?
400 nM
